Molecular target: T1, hCD112R mFC recombinant protein (human; murine, UniProt Q6DKI7 41-160)
T1 construct: range 41-160; expressed in 293E cells; also called hCD112R ECD mFC; hCD112R-ECD-mFC; not shown: murine IgG2a Fc domain (MX2-mFc vector)
T1 sequence (looked up): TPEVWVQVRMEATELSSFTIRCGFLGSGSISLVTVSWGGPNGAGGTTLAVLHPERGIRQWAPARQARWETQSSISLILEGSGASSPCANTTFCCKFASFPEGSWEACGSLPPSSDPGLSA
Assay: ELISA, coated hCD112R-ECD-mFC; EC50 COM701/EC50 antibody
So I've got a bunch of binders here, and I need their Relative activity (%) values.
Entry rule: numbers only, all in %.

I have this binder here, Hu8 (antibody, IgG4, V domains shown, humanized IgG4; also called Hu-08) VH: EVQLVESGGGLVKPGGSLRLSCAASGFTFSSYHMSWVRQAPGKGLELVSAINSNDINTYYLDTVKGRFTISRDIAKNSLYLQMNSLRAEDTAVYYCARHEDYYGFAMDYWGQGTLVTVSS VL: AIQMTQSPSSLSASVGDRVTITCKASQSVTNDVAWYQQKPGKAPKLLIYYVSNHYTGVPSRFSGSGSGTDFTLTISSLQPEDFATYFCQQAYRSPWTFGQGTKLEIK , and I need its recorded Relative activity (%).
127

Then Hu24 (antibody, IgG4, V domains shown, humanized IgG4) VH: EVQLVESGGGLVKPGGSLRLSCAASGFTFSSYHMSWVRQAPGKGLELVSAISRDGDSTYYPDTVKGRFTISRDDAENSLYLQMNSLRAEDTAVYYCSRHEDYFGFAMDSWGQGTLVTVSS VL: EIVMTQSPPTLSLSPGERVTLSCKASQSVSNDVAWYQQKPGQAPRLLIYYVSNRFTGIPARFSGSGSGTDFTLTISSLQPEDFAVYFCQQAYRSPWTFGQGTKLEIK ?
155
